study system: T1, human Y2 receptor (human, UniProt P49146 1-381)
T1 sequence (looked up): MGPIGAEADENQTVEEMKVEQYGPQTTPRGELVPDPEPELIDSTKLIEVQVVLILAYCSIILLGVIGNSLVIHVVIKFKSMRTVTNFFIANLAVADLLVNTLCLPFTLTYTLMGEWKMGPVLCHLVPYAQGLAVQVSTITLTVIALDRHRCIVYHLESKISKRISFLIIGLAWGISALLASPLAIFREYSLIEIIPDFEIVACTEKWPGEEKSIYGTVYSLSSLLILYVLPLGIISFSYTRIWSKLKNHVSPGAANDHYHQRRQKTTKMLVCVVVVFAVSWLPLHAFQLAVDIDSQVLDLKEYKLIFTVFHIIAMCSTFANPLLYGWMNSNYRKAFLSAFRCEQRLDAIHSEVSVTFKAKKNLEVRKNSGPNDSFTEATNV
assay procedure: cell-based or functional assay
Non-standard residues stand in square brackets, D forms with d. No end group written: not given here. *: point of attachment. 4‑guanidinomethylbenzoyl = N=C(N)NCc1ccc(C(=O)*)cc1; Cha = N[C@@H](CC1CCCCC1)C(=O)O; 4Amb = NCc1ccc(C(=O)O)cc1; Iva = CC[C@](C)(N)C(=O)O; Aib = CC(C)(N)C(=O)O
Would you kindly list GBA EC50 Ratio (vs PYY(3-36)), [35S]GTPγS for each of these binders?
Give bare numbers, in ratio.

* {4‑guanidinomethylbenzoyl}-RAYINLITRQRY-NH2 (SMILES CC[C@H](C)[C@H](NC(=O)[C@H](Cc1ccc(O)cc1)NC(=O)[C@H](C)NC(=O)[C@H](CCCNC(=N)N)NC(=O)c1ccc(CNC(=N)N)cc1)C(=O)N[C@@H](CC(N)=O)C(=O)N[C@@H](CC(C)C)C(=O)N[C@H](C(=O)N[C@H](C(=O)N[C@@H](CCCNC(=N)N)C(=O)N[C@@H](CCC(N)=O)C(=O)N[C@@H](CCCNC(=N)N)C(=O)N[C@@H](Cc1ccc(O)cc1)C(N)=O)[C@@H](C)O)[C@@H](C)CC, also called compound No. 4) [4-Guanidinomethylbenzoyl-[Ala26, Ile28,31]-PYY(25-36)] | 1.1
* Ac-SGRH[Cha][Cha]NL[Aib]TRQR[Cha]-NH2 (SMILES CC(=O)N[C@@H](CO)C(=O)NCC(=O)N[C@@H](CCCNC(=N)N)C(=O)N[C@@H](Cc1c[nH]cn1)C(=O)N[C@@H](CC1CCCCC1)C(=O)N[C@@H](CC1CCCCC1)C(=O)N[C@@H](CC(N)=O)C(=O)N[C@@H](CC(C)C)C(=O)NC(C)(C)C(=O)N[C@H](C(=O)N[C@@H](CCCNC(=N)N)C(=O)N[C@@H](CCC(N)=O)C(=O)N[C@@H](CCCNC(=N)N)C(=O)N[C@@H](CC1CCCCC1)C(N)=O)[C@@H](C)O, also called compound No. 112) [Ac-[Gly24, Cha27,28,36, Aib31]-PYY(23-36)] | 3.9
* [4Amb]RAYFNLITRQRY-NH2 (N-terminus assumed; SMILES CC[C@H](C)[C@H](NC(=O)[C@H](CC(C)C)NC(=O)[C@H](CC(N)=O)NC(=O)[C@H](Cc1ccccc1)NC(=O)[C@H](Cc1ccc(O)cc1)NC(=O)[C@H](C)NC(=O)[C@H](CCCNC(=N)N)NC(=O)c1ccc(CN)cc1)C(=O)N[C@H](C(=O)N[C@@H](CCCNC(=N)N)C(=O)N[C@@H](CCC(N)=O)C(=O)N[C@@H](CCCNC(=N)N)C(=O)N[C@@H](Cc1ccc(O)cc1)C(N)=O)[C@@H](C)O, also called compound No. 22) [4-Aminomethylbenzoyl-[Ala26, Phe28, Ile31]-PYY(25-36)] | 3.5

Below: the item to evaluate.
Challenge: Any idea what GBA EC50 Ratio (vs PYY(3-36)), [35S]GTPγS was measured for Ac-S[dP]RH[Iva][Cha]NL[Aib]TRQR[Cha]-NH2 (SMILES CC[C@](C)(NC(=O)[C@H](Cc1c[nH]cn1)NC(=O)[C@H](CCCNC(=N)N)NC(=O)[C@H]1CCCN1C(=O)[C@H](CO)NC(C)=O)C(=O)N[C@@H](CC1CCCCC1)C(=O)N[C@@H](CC(N)=O)C(=O)N[C@@H](CC(C)C)C(=O)NC(C)(C)C(=O)N[C@H](C(=O)N[C@@H](CCCNC(=N)N)C(=O)N[C@@H](CCC(N)=O)C(=O)N[C@@H](CCCNC(=N)N)C(=O)N[C@@H](CC1CCCCC1)C(N)=O)[C@@H](C)O, also called compound No. 175) [Ac-[D-Pro24, Iva27, Cha28,36, Aib31]-PYY(23-36)] ?
Response given: 2.6
